Data credit: patent US8003677B2

Molecular target: SCD1 (Rattus norvegicus)
Construct: The resuspended microsome fraction was stored at −80° C; from tissue; host or cells: liver microsomes of male Wistar rats fed a carbohydrate-rich, low-fat diet
Experiment: stearoyl-CoA desaturase (SCD1) activity in rat liver microsomes, TLC assay with 1-14C-labeled stearic acid
Format: biochemical
Conditions: inhibition of SCD1 activity; compound at 10 μM/l; 15 μg rat liver microsomes (male Wistar rats); 37° C., 1 h
Catalogue of inhibition at 10 µM values
Kindly answer with a numeric value in %, unit omitted.

Some entries whose results are on file:
INSERT INTO assay_data (compound, measurement) VALUES
  ('CN(Cc1nccs1)C(=O)c1ccc(N2CC3=C(CN(C(=O)c4ccccc4C(F)(F)F)C3)C2)nc1', 100),
  ('CCOC(=O)c1cnc(N2CC3=C(CN(C(=O)c4ccccc4C(F)(F)F)C3)C2)s1', 65),
  ('O=C(NCC1CC1)c1ccc(N2CC3=C(CN(C(=O)c4ccccc4C(F)(F)F)C3)C2)nc1', 97),
  ('O=C(NCC1CCCC1)c1ccc(N2CC3=C(CN(C(=O)c4ccccc4C(F)(F)F)C3)C2)nc1', 100),
  ('CCC(O)CCNC(=O)c1ccc(N2CC3=C(CN(C(=O)c4cc(OC)ccc4Br)C3)C2)nn1 (stereo not drawn)', 38);

With those in mind, consider the next compound.
Tested on SCD1 (Rattus norvegicus), the item "O=C(NCCC1CCCC1)c1ccc(N2CC3=C(CN(C(=O)c4ccccc4C(F)(F)F)C3)C2)nc1" showed inhibition at 10 µM equal to 100

---

Biological target: SCD1 (Rattus norvegicus, UniProt P07308)
Construct: The resuspended microsome fraction was stored at −80° C; from tissue; host or cells: liver microsomes of male Wistar rats fed a carbohydrate-rich, low-fat diet
Sequence (P07308 whole entry): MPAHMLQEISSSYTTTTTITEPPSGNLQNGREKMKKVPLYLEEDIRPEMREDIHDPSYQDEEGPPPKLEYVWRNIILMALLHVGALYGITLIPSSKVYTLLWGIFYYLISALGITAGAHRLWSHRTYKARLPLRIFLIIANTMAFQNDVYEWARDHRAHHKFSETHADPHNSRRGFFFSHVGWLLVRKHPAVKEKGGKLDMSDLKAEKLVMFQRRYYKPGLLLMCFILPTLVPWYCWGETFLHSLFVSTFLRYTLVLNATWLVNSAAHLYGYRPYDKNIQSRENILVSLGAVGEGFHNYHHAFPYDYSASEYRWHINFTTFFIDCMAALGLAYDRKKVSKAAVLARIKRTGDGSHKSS
Test: stearoyl-CoA desaturase (SCD1) activity in rat liver microsomes, TLC assay with 1-14C-labeled stearic acid
Type: biochemical
Details: inhibition of SCD1 activity; compound at 10 μM/l; 15 μg rat liver microsomes (male Wistar rats); 37° C., 1 h
Assay metric: inhibition at 10 µM (%)
Kindly answer with a numeric value in %, unit omitted.

INSERT INTO assay_data (smiles_notation, assay_metric, measurement) VALUES
  ('O=C(NCc1cncs1)c1ccc(N2CC3=C(CN(C(=O)c4ccccc4C(F)(F)F)C3)C2)nc1', 'inhibition at 10 µM', 100);

Documented inhibition at 10 µM of "O=C(NCc1nccs1)c1ccc(N2CC3=C(CN(C(=O)c4ccccc4C(F)(F)F)C3)C2)nc1" : 100

Documented inhibition at 10 µM of "O=C(NCCC1CC1)c1ccc(N2CC3=C(CN(C(=O)c4ccccc4C(F)(F)F)C3)C2)nn1" : 100

Documented inhibition at 10 µM of "O=C(NCCC1CC1)c1cnc(N2CC3=C(CN(C(=O)c4ccccc4C(F)(F)F)C3)C2)s1" : 31

Documented inhibition at 10 µM of "O=C(NCCCc1ccccc1)c1cnc(N2CC3=C(CN(C(=O)c4ccccc4C(F)(F)F)C3)C2)s1" : 26

Documented inhibition at 10 µM of "O=C(NCCc1ccccc1)c1ccc(N2CC3=C(CN(C(=O)c4ccccc4C(F)(F)F)C3)C2)nc1" : 100

Documented inhibition at 10 µM of "O=C(NCCC1CC1)c1ccc(N2CC3=C(CN(C(=O)c4ccccc4C(F)(F)F)C3)C2)nc1" : 100

Documented inhibition at 10 µM of "CC(C)CCNC(=O)c1ccc(N2CC3=C(CN(C(=O)c4ccccc4C(F)(F)F)C3)C2)nc1" : 100
